Origin of measurements: the nanobody polyreactivity screen of Harvey et al. (2022)

assay-explanation: yeast display, Sf9 membrane polyspecificity reagent, FACS + sequencing; frameworks hold sequencing errors

# construct-sequence, polyreactivity (PSR sort gate)
measured = [
    ("QVQLVESGGGLVQAGGSLRLICAASAFNFRYYVMGWYRQAPGKERELVAVISYSGGSTYYADSVKGRFTISRDNAKNTVYLQRNSMKPEDTAVYYCDARYYVATSSIYYYWGQGTQVTVSS", "high polyreactivity"),
    ("QVQLVESGGGLVQAGGSLRLSCAASGSTLDVYAMGWYRQAPGKERELVAAISWSVGSTYYAYSVKGRFKISRDNAKNTVYLQINRLKPEDTAVYNCAAEQYEYAYDGYDYWGQGTQVTVSS", "high polyreactivity"),
]
